Assay: S. cerevisiae growth modulation with rapamycin, primary screen, strain BY4716, OD600, 96 h (AID 1091); note: test concentration not given here
Settings: called active from +8 up or from −8 down
The source made the active and inactive calls.
Permitted responses: active, inactive

(Q) # lookup: test call for O=C1NC(=O)C2C1C=CC(C(O)C(O)CO)N2Nc1ccccn1 (stereo unspecified)
(A) inactive

(Q) Repeat for the following compound: CCCCCN1CC=CC23O[C@@H]4/C=C\CCCOC(=O)C4[C@H]2C(=O)N(CCCCCO)[C@@H]3C1=O (stereo partly specified)
(A) inactive

(Q) Repeat for the following compound: `COC(=O)[C@@]1(Cc2ccc(F)cc2)[C@H]2c3cc(C(=O)N(C)C)n(CCF)c3C[C@H]2CN1C(=O)c1ccccc1`
(A) inactive

(Q) Repeat for the following compound: `CC(C)C[C@@H]1NC(=O)[C@@H]2C[C@H](C(=O)NCCCCCNC(=O)CS)[C@H](c3ccc(O)cc3)N2C1=O`
(A) inactive

(Q) Repeat for the following compound: `[N-]=[N+]=NCc1ccccc1[C@H]1OC(c2ccc(OCCCO)cc2)=N[C@@]1(CCS(=O)(=O)c1ccccc1)C(=O)NCCN1CCOCC1`
(A) inactive

(Q) Repeat for the following compound: `[N-]=[N+]=NCc1ccccc1C[C@]1(C(=O)N2CCCCC2)COC(c2ccc(OCCCO)cc2)=N1`
(A) active

(Q) Repeat for the following compound: `COc1ccc(CCNC(=O)[C@@]2(c3ccc([N+](=O)[O-])cc3)CC(=O)N(C3CCCCC3)[C@@H]2c2ccc(CO)cc2I)cc1`
(A) inactive

(Q) Repeat for the following compound: CCCCN1CC=CC23O[C@@H]4C=CCCOC(=O)C4[C@H]2C(=O)N(CCO)[C@@H]3C1=O (stereo partly specified)
(A) inactive

(Q) Repeat for the following compound: `COC(=O)[C@]1(Cc2ccccc2N=[N+]=[N-])N=C(c2ccc(OCCCO)cc2)O[C@@H]1c1ccccc1CN=[N+]=[N-]`
(A) active

(Q) Repeat for the following compound: `CN(C)CCCCCCNC(=O)[C@@H]1C[C@@H]2C(=O)N[C@@H](CCCC[N+](C)(C)C)C(=O)N2[C@@H]1c1cccc(OCCO)c1`
(A) inactive

(Q) Repeat for the following compound: `COc1cc(Cc2cc3c(c(CCc4ccccc4)n2)[Si](C(C)C)(C(C)C)O[C@H]3c2ccccc2)cc(OC)c1OC`
(A) inactive

(Q) Repeat for the following compound: COC(=O)c1ccc(OC)c(/C=C\CC(OC(=O)c2ccncc2)c2ccccc2)c1 (stereo unspecified)
(A) inactive

(Q) Repeat for the following compound: CN1C(=O)C2C=CC(C(O)COCc3ccccc3)N(Nc3ccc([N+](=O)[O-])cc3[N+](=O)[O-])C2C1=O (stereo unspecified)
(A) inactive

(Q) Repeat for the following compound: `COCCOC(=O)N1C(=O)[C@@]2(c3cc(C#CCC(C(=O)OC)C(=O)OC)ccc31)[C@H](c1ccc(O)cc1)N1[C@H](c3ccccc3)[C@H](c3ccccc3)OC(=O)[C@H]1[C@@H]2C(=O)N1CCc2cc(OC)c(OC)cc2C1`
(A) inactive

(Q) Repeat for the following compound: `COC(=O)[C@@]1(Cc2ccc(F)cc2)[C@H]2c3cc(C(=O)N4CCCC4)n(CCSCCO)c3C[C@H]2CN1C(=O)c1ccccc1`
(A) inactive

(Q) Repeat for the following compound: COc1ccc(C(O)C2C=CC3C(=O)N(C)C(=O)C3N2Nc2ccccc2)cc1 (stereo unspecified)
(A) inactive

(Q) Repeat for the following compound: `Cc1ccc(S(=O)(=O)N2[C@@H](c3ccccc3)C(C(=O)O)=CC[C@H]2c2ccc(F)cc2)cc1`
(A) inactive

(Q) Repeat for the following compound: COC(=O)[C@H](Cc1ccccc1)N1CC(C)(OC)O[C@@H](Cc2ccccc2)[C@H]1/C=C/C1CC1 (stereo partly specified)
(A) inactive

(Q) Repeat for the following compound: `CC(C)C[C@@H]1NC(=O)[C@@H]2C[C@H](C(=O)NCCCCCCNC(=O)CS)[C@H](c3ccc(O)cc3)N2C1=O`
(A) inactive

(Q) Repeat for the following compound: `CN(C)CCCC[C@@H]1NC(=O)[C@H]2C[C@@H](C(=O)NCCCCCCNC(=O)CS)[C@@H](c3cccc(OCCO)c3)N2C1=O`
(A) inactive

(Q) Repeat for the following compound: `OCCCc1cc[n+](Cc2cc3c(cc2Br)OCO3)cc1`
(A) inactive

----------
Test: MM1S cell viability effects, profiling panel, calcein-AM fluorescence, 48 h, basal (AID 1165);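 note: viability of MM1S multiple myeloma cells under basal unstimulated conditions; test concentration not given here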
Conditions: higher = more signal
Classes (z-score): zone 1 = under -3, zone 2 = from -3 up to -0.4, zone 3 = -0.4 and over

(Q) Which band does CCCCN1CC=CC23O[C@@H]4/C=C\CCC(C)OC(=O)C4[C@H]2C(=O)N(CCO)[C@@H]3C1=O (some centres undefined) fall in?
(A) zone 3

(Q) Repeat for the following compound: `COC(=O)C(CC#Cc1ccc2c(c1)[C@]1(C(=O)N2)[C@H](C(N)=O)[C@H]2C(=O)O[C@H](c3ccccc3)[C@H](c3ccccc3)N2[C@@H]1c1ccccc1OCCO)C(=O)OC`
(A) zone 1

(Q) Repeat for the following compound: `C=C[C@H](OC)[C@@H](O)c1ccc(OC)c(O)c1`
(A) zone 3

(Q) Repeat for the following compound: `C[N+](C)(C)CCCC[C@@H]1NC(=O)[C@H]2C[C@@H](C(=O)NCCCCCN)[C@@H](c3ccc(O)cc3)N2C1=O`
(A) zone 2

(Q) Repeat for the following compound: `CC(C)N1C(=O)[C@@]2(Cc3ccccc31)c1ccccc1C(=O)N(Cc1ccccc1)[C@H]2c1ccc(CO)cc1`
(A) zone 2

(Q) Repeat for the following compound: CCCCCN1CC=CC23O[C@@H]4/C=C\CCCOC(=O)C4[C@H]2C(=O)N(CCO)[C@@H]3C1=O (some centres undefined)
(A) zone 3

(Q) Repeat for the following compound: `[N-]=[N+]=NCc1ccccc1[C@H]1OC(c2ccc(OCCCO)cc2)=N[C@@]1(Cc1ccccc1N=[N+]=[N-])C(=O)O`
(A) zone 2

(Q) Repeat for the following compound: `CC(C)Cc1ccc(CN2CC[C@@H](NC(=O)c3ccccc3)C2)cc1`
(A) zone 1

(Q) Repeat for the following compound: CC(C)c1ccc(NN2C(C(O)C3CCCCC3)C=CC3C(=O)N(c4ccccc4)C(=O)C32)cc1 (centres undefined)
(A) zone 3

(Q) Repeat for the following compound: CC(C)c1ccc(NN2C(C(O)c3ccccc3)C=CC3C(=O)N(c4ccccc4)C(=O)C32)cc1 (centres undefined)
(A) zone 3

(Q) Repeat for the following compound: `[N-]=[N+]=NCc1ccccc1[C@H]1OC(c2ccc(OCCCO)cc2)=N[C@@]1(Cc1ccccc1N=[N+]=[N-])C(=O)N1CCOCC1`
(A) zone 2

(Q) Repeat for the following compound: `COC(=O)[C@H]1N=C(c2ccc(OCCCO)cc2)O[C@H]1c1ccccc1N=[N+]=[N-]`
(A) zone 2

(Q) Repeat for the following compound: `COc1ccc([Si](C)(C)[C@H]2[C@H](CCO)O[C@@]3(C(=O)N(Cc4ccccc4)c4ccc(NC(=O)[C@H](C)O)cc43)[C@@H]2C)cc1`
(A) zone 2

(Q) Repeat for the following compound: `COc1ccc(C(=O)Nc2ccc(CN3C(=O)[C@]4(O[C@H](CC(=O)N(CCO)Cc5ccccc5)[C@@H]([Si](C)(C)c5ccc(OC)cc5)[C@@H]4C)c4ccccc43)cc2)cc1`
(A) zone 2

(Q) Repeat for the following compound: `[N-]=[N+]=Nc1ccccc1C[C@@]1(C(=O)NCc2ccccc2)N=C(c2ccc(OCCCO)cc2)O[C@@H]1c1ccccc1`
(A) zone 2

(Q) Repeat for the following compound: `C[C@@]1([C@@H](NS(=O)(=O)c2cccc3cccnc23)c2ccc(-c3ccccc3)cc2)C[C@H]1C1CCCCC1`
(A) zone 2

(Q) Repeat for the following compound: CN1C(=O)C2C=CC(C(O)c3cccs3)N(N(c3ccccc3)c3ccccc3)C2C1=O (centres undefined)
(A) zone 3

(Q) Repeat for the following compound: `C=C(COC)/C(=C/C[C@@H](OC(=O)c1ccncc1)c1ccccc1OCCO)c1cnc2ccccc2c1`
(A) zone 1

(Q) Repeat for the following compound: CN1C(=O)C2C=CC(C(O)COCc3ccccc3)N(Nc3ccc([N+](=O)[O-])cc3[N+](=O)[O-])C2C1=O (centres undefined)
(A) zone 2

(Q) Repeat for the following compound: COC(=O)C1=CC(c2ccc(CO)cc2)=CC(C2CC2)N(Cc2cc3c(cc2Br)OCO3)C=C1C(=O)OC (centres undefined)
(A) zone 2

(Q) Repeat for the following compound: `CCCCC(=C=CC[C@H](O)c1cccc(OCCO)c1)C[C@H](O)c1cc(Cl)cc(Cl)c1O`
(A) zone 1

(Q) Repeat for the following compound: `C=CCNC(=O)[C@H]1[C@@H]2C(=O)O[C@@H](c3ccccc3)[C@@H](c3ccccc3)N2[C@@H](c2ccc(OCCO)cc2)[C@]12C(=O)N(C(=O)OCCOC)c1ccc(C#CCNC(N)=O)cc12`
(A) zone 3

(Q) Repeat for the following compound: `COc1ccc([Si](C)(C)[C@H]2[C@H](CC(=O)N3CCC[C@H]3CO)O[C@@]3(C(=O)N(C)c4ccccc43)[C@@H]2C)cc1`
(A) zone 3
